Origin of measurements: paper PMC9469100

Molecular target: human PRMT4 (full length) (Homo sapiens)
Construct: Full-length recombinant PRMT4 (Active motif, # 81107); purchased Active motif # 81107
Sequence (Q86X55 1-608): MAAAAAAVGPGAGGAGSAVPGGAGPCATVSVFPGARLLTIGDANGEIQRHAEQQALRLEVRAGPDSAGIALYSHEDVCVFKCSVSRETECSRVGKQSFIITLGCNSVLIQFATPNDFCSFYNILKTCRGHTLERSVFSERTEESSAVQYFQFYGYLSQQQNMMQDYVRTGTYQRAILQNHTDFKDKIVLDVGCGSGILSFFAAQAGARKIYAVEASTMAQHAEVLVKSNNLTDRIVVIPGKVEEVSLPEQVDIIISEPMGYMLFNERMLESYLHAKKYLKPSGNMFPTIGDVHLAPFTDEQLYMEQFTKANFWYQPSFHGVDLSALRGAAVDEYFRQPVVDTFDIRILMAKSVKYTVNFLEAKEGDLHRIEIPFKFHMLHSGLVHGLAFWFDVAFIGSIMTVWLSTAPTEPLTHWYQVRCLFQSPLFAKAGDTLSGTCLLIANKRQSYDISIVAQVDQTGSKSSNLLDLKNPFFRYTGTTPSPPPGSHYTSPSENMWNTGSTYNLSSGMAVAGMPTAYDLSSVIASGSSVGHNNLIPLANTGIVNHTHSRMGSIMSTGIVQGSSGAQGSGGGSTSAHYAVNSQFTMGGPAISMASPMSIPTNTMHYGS
Test: SPR binding to immobilized PRMT4
Details: in vitro residence time, τ = 1/koff

{"Compound": "COC(=O)c1cc(O)c2cc(NC(=O)NCCCCNC(=N)NCCC[C@H]3O[C@@H](n4cnc5c(N)ncnc54)[C@H](O)[C@@H]3O)ccc2c1 [12g]", "τR, s": 76.9}
{"Compound": "COC(=O)c1cc(O)c2cc(NC(=O)NCCCCNC(=N)NC[C@H]3O[C@@H](n4cnc5c(N)ncnc54)[C@H](O)[C@@H]3O)ccc2c1 [12b]", "τR, s": 66.7}
{"Compound": "COC(=O)c1cc(O)c2cc(NC(=O)NCCCCCCCNC(=N)NC[C@H]3O[C@@H](n4cnc5c(N)ncnc54)[C@H](O)[C@@H]3O)ccc2c1 [12e]", "τR, s": 66.7}
{"Compound": "C[S+](CC[C@H](N)C(=O)[O-])C[C@H]1O[C@@H](n2cnc3c(N)ncnc32)[C@H](O)[C@@H]1O (stereo partly drawn) [SAM, S-adenosyl-L-methionine, reference compound]", "τR, s": 333.3}
{"Compound": "COC(=O)c1cc(O)c2cc(NC(=O)NCCCCCNC(=N)NC[C@H]3O[C@@H](n4cnc5c(N)ncnc54)[C@H](O)[C@@H]3O)ccc2c1 [12c]", "τR, s": 76.9}
{"Compound": "COC(=O)c1cc(O)c2cc(NC(=O)NCCCCCCNC(=N)NC[C@H]3O[C@@H](n4cnc5c(N)ncnc54)[C@H](O)[C@@H]3O)ccc2c1 [12d]", "τR, s": 1.31}
{"Compound": "COC(=O)c1cc(O)c2cc(NC(=O)NCCCCNC(=N)NCC[C@H]3O[C@@H](n4cnc5c(N)ncnc54)[C@H](O)[C@@H]3O)ccc2c1 [12f]", "τR, s": 14.7}
